- studyTarget: Glycogen synthase kinase-3 (Sus scrofa, UniProt B2LUN4+I6LNT8)
- testSummary: Inhibition of porcine brain GSK3alpha/beta assessed as [gamma-33P]ATP incorporation after 30 mins by scintillation counting
Reported IC50 is given for each of the following compounds.

Past entries and their recorded results:
Nc1ccc2c(c1)/C(=C1/Nc3ccccc3C1=O)C(=O)N2 | 0.08 µM
O=C1Nc2cc([N+](=O)[O-])ccc2/C1=C1/Nc2ccc(Br)cc2/C1=N\O | 0.7 µM
Nc1ccc2c(c1)/C(=C1/Nc3ccccc3/C1=N\O)C(=O)N2 | 0.36 µM
CC(=O)Nc1ccc2c(c1)/C(=C1/Nc3ccc(Br)cc3/C1=N\O)C(=O)N2 | 40 µM

// next entry
input: Look up IC50 for this compound: `Nc1ccc2c(c1)NC(=O)/C2=C1\Nc2ccccc2C1=O`
output: 0.36 µM
